// data source = patent US9340500B2

Catalogue of molecules with associated Ki
# SUBJECT_OF_TEST: human TRPV4 (Homo sapiens (Human), UniProt Q9HBA0)
# Sequence (Q9HBA0 whole entry): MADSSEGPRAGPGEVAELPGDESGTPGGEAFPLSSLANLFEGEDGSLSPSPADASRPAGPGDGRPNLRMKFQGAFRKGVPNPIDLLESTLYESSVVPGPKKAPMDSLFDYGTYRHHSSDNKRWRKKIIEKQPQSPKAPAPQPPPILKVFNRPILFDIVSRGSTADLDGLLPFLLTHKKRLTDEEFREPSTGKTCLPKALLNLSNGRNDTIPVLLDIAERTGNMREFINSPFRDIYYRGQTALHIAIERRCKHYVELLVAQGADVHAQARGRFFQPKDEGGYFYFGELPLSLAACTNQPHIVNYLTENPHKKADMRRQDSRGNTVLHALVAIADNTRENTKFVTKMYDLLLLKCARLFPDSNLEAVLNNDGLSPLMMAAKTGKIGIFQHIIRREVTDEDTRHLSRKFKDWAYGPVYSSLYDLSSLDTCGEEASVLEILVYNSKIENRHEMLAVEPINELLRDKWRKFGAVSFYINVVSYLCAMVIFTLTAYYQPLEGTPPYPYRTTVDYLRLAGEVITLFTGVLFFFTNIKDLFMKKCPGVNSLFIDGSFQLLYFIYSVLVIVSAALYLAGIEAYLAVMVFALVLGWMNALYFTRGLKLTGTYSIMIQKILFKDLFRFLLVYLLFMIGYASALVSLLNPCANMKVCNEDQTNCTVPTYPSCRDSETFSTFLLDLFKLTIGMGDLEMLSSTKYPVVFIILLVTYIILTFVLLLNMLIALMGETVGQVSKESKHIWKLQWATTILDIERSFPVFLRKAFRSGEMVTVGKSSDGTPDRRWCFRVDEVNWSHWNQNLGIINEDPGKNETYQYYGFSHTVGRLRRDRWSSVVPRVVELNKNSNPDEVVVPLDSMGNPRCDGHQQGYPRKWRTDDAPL
# ASSAY_TEXT: Test Example 3: measurement of TRPV4 inhibitory activity (Fluo-3, FDSS 3000, 4α-PDD)
# Format: cell-based
# EXPERIMENTAL_CONTEXT: hTRPV4/CHO cells, calculated from IC50 and 4α-PDD EC50
EXPERIMENTAL_READOUT: Ki (nM)

>>> df
                                   molecule                           subject_of_test  experimental_readout  recorded_result
0  CC(=O)NCCCn1c(-c2ccccc2)cc(C(=O)Nc2cccc(C(F)(F)F)c2)c1C  human TRPV4 (Homo sapiens (Human), UniProt Q9HBA0)                    Ki             1130
1  CCOC(=O)C1CC1CN(C)CCCn1c(-c2ccccc2)cc(C(=O)Nc2cccc(C(F)(F)F)c2)c1C (stereo not shown)  human TRPV4 (Homo sapiens (Human), UniProt Q9HBA0)                    Ki             1800
2  COC(=O)CCCN(C)CCCn1c(-c2ccccc2)cc(C(=O)Nc2cccc(C(F)(F)F)c2)c1C  human TRPV4 (Homo sapiens (Human), UniProt Q9HBA0)                    Ki              988
3  Cc1c(C(=O)Nc2ccc(Cl)cn2)cc(-c2ccccc2)n1CCCN1CCOCC1  human TRPV4 (Homo sapiens (Human), UniProt Q9HBA0)                    Ki             1570

* * *

# ASSAY_TEXT: Solubility test
# Type: physicochemical
# EXPERIMENTAL_CONTEXT: artificial intestinal juice (phosphate buffer) with 1% DMSO, fassgf or other biorelevant, kinetic from dmso stock, artificial intestinal juice pH 6.8, 16 hours at 25° C.
EXPERIMENTAL_READOUT: solubility at 16 h

In [3]: df
Out[3]:
                                      smiles  recorded_result
 0  Cc1c(C(=O)Nc2cccc(C(F)(F)F)c2)cc(-c2ccncc2)n1CCCN1CCOCC1          > 50 µM
 1  Cc1c(C(=O)Nc2cccc(C(F)(F)F)c2)cc(-c2cccnc2)n1CCCN1CCOCC1          > 50 µM
 2  Cc1c(C(=O)Nc2cccc(C(F)(F)F)c2)cc(C2CCN(S(C)(=O)=O)CC2)n1CCCN1CCOCC1          20.1 µM
 3  Cc1c(C(=O)Nc2cccc(C(F)(F)F)c2)cc(C2CCNCC2)n1CCCN1CCOCC1          > 50 µM
 4  Cc1c(C(=O)Nc2cccc(C(F)(F)F)c2)cc(-c2ccccc2)n1CCCN1CCNC(=O)C1          18.5 µM
 5  O=C(Nc1cccc(C(F)(F)F)c1)c1cnc(-c2ccccc2)c(CCCN2CCOCC2)c1          35.1 µM
 6  Cc1c(C(=O)Nc2cccc(C(F)(F)F)c2)cc(C#N)n1CCCN1CCOCC1          40.2 µM
 7  Cc1c(C(=O)Nc2cccc(C(F)(F)F)c2)cc(-c2ccccc2)n1CCCN(C)CC[C@H](O)[C@H](O)CO          > 50 µM
 8  Cc1c(C(=O)Nc2ccccc2)cc(-c2ccccc2)n1CCCN1CCOCC1          > 50 µM
 9  Cc1c(C(=O)Nc2cnccn2)cc(-c2ccccc2)n1CCCN1CCOCC1          > 50 µM
10  Cc1c(NC(=O)c2cccc(C(F)(F)F)c2)cc(-c2ccccc2)n1CCCN1CCOCC1          > 50 µM
11  Cc1c(C(=O)Nc2cccc(C(F)(F)F)c2)cc(-c2ccccc2)n1CCCNS(C)(=O)=O          10.1 µM
12  Cc1c(C(=O)Nc2ccccc2C(F)(F)F)cc(-c2ccccc2)n1CCCN1CCOCC1          > 50 µM
13  Cc1cc(C(=O)Nc2cccc(C(F)(F)F)c2)c(C)n1CCCN1CCOCC1          > 50 µM
14  Cc1c(C(=O)Nc2cccc(C(F)(F)F)c2)ccn1CCCN1CCOCC1          > 50 µM
15  Cc1c(C(=O)Nc2nccs2)cc(-c2ccccc2)n1CCCN1CCOCC1          > 50 µM
16  Cc1c(C(=O)Nc2cccc(C(F)(F)F)c2)cc(-c2ccccc2)n1CCCN(CCO)CCO          > 50 µM
17  Cc1c(C(=O)Nc2cccc(C(F)(F)F)c2)cc(-c2ccccc2)n1CCCN1CCNCC1          > 50 µM
18  CCOC(=O)Cc1csc(NC(=O)c2cc(-c3ccccc3)n(CCCN3CCOCC3)c2C)n1          > 50 µM
19  Cc1c(C(=O)Nc2ccc(Cl)cn2)cc(-c2ccccc2)n1CCCN1CCOCC1          39.2 µM
20  Cc1c(C(=O)Nc2cccc(C(F)(F)F)c2)cc(-c2ccccc2)n1CCCN(C)C          > 50 µM
21  O=C(Nc1cccc(C(F)(F)F)c1)c1cc(-c2ccccc2)nn1CCCN1CCOCC1          14.5 µM
22  Cc1c(C(=O)Nc2cccc(C(F)(F)F)c2)cc(-c2ccccc2)n1CCCN(C)CC1CC1          26.8 µM
23  Cc1c(NS(=O)(=O)c2cccc(C(F)(F)F)c2)cc(-c2ccccc2)n1CCCN1CCOCC1          24.3 µM
24  CC(=O)N1CCC(c2cc(C(=O)Nc3cccc(C(F)(F)F)c3)c(C)n2CCCN2CCOCC2)CC1          > 50 µM
25  Cc1c(C(=O)Nc2cccc(C(F)(F)F)c2)cc(C(C)(C)C)n1CCCN1CCOCC1          19.3 µM
26  Cc1c(C(=O)Nc2cccc(C(F)(F)F)c2)cc(-c2ccccc2)n1CCCN(C)CC1CCN(C)CC1          > 50 µM
27  Cc1c(C(=O)Nc2cccc(C(F)(F)F)c2)cc(-c2ccccc2)n1CCCN(C)CC(C)(C)CN(C)C          > 50 µM
28  Cc1c(C(=O)Nc2cccc(C(F)(F)F)c2)cc(-c2ccccn2)n1CCCN1CCOCC1          28.9 µM
29  CNCCCn1c(-c2ccccc2)cc(C(=O)Nc2cccc(C(F)(F)F)c2)c1C          > 50 µM
30  O=C(Nc1cccc(C(F)(F)F)c1)c1cc(-c2ccccc2)n(CCCN2CCOCC2)n1           8.3 µM
